Where do these numbers come from? They come from ChEMBL document CHEMBL4825755.

Reported CLint scaled at 0.75 h, 0.5 µM values for a set of compounds
- METHOD_NOTES: in vitro
- CONDITIONS: human, pooled liver microsomes
- Description: Intrinsic clearance in pooled human liver microsomes at 0.5 uM measured up to 45 mins in presence of NADPH by LC-MS/MS analysis
Provide only the numeric value, understood in mL/min/kg.

Solved cases below.
>  <CHEM_SMILES>
COc1ncc(C2=CCOCC2)cc1S(=O)(=O)Nc1cncc(-c2ccc(CN3CCN(C(C)C)CC3)cc2)c1

>  <CLint scaled at 0.75 h, 0.5 µM / mL/min/kg>
2.28

$$$$
>  <CHEM_SMILES>
COc1ncc(C2=CCOCC2)cc1S(=O)(=O)Nc1cncc(-c2cccc(CN3CCCCC3)c2)c1

>  <CLint scaled at 0.75 h, 0.5 µM / mL/min/kg>
1.88

$$$$
>  <CHEM_SMILES>
COc1ncc(C2=CCOCC2)cc1S(=O)(=O)Nc1cncc(-c2ccc(CN3C[C@@H](C)N(C)[C@@H](C)C3)cc2)c1

>  <CLint scaled at 0.75 h, 0.5 µM / mL/min/kg>
3.04

$$$$
>  <CHEM_SMILES>
COc1ncc(C2=CCOCC2)cc1S(=O)(=O)Nc1cncc(-c2ccc(CN3CCN(C)CC3)cc2)c1

>  <CLint scaled at 0.75 h, 0.5 µM / mL/min/kg>
1.64

$$$$
>  <CHEM_SMILES>
COc1ncc(N2CCOCC2)cc1S(=O)(=O)Nc1cncc(-c2ccc(CN3CCN(C(C)C)CC3)cc2F)c1

>  <CLint scaled at 0.75 h, 0.5 µM / mL/min/kg>
0.65

$$$$

Prompt: Retrieve CLint scaled at 0.75 h, 0.5 µM measured for "COc1ncc(C2=CCOCC2)cc1S(=O)(=O)Nc1cncc(C#CCN2C[C@@H](C)O[C@@H](C)C2)c1" and print it.
Completion: 3.64

Prompt: Please indicate CLint scaled at 0.75 h, 0.5 µM recorded for "COc1ncc(C2=CCOCC2)cc1S(=O)(=O)Nc1cncc(-c2cccc(CN3CCCC3)c2)c1"
Completion: 0.71
